Below, each entry is listed with its recorded IC50.
- Measured on: c-Kit(V654A) (Homo sapiens, UniProt P10721, V654A)
- Protocol: c-Kit(V654A) assay
- Assay type: biochemical
- Test context: Table 1; 200 μM ATP
Measurement label: IC50 (nM)

| Smiles record | Measured on | Recorded result |
| --- | --- | --- |
| COCCOc1cc2[nH]nc(-c3cc(-c4ccc(C(=O)N5CC6(CN(C)C6)C5)cc4)no3)c2cc1F | c-Kit(V654A) (Homo sapiens, UniProt P10721, V654A) | 2.3 |
| COCCOc1cc2[nH]nc(-c3cc(-c4ccc(C(=O)N5CC[S+]([O-])CC5)cc4)no3)c2cc1F | c-Kit(V654A) (Homo sapiens, UniProt P10721, V654A) | 0.76 |
| COCCOc1cc2[nH]nc(-c3cc(-c4ccc(C(=O)N5CCN(C6CCOCC6)CC5)cc4)no3)c2cc1F | c-Kit(V654A) (Homo sapiens, UniProt P10721, V654A) | 0.61 |
| COCCOc1cc2[nH]nc(-c3cc(-c4ccc(C(=O)N5CCN(C6COC6)C[C@H]5C)cc4)no3)c2cc1F | c-Kit(V654A) (Homo sapiens, UniProt P10721, V654A) | 1.6 |
| COCCOc1cc2[nH]nc(-c3cc(-c4ccc(C(=O)N5CCN(C6COC6)CC5)cc4)no3)c2cc1Cl | c-Kit(V654A) (Homo sapiens, UniProt P10721, V654A) | 0.78 |
| COCCOc1cc2[nH]nc(-c3cc(-c4ccc(C(=O)N5CC[C@H]5C(C)(C)O)cc4)on3)c2cc1F | c-Kit(V654A) (Homo sapiens, UniProt P10721, V654A) | 1.8 |
| COCCOc1cc2[nH]nc(-c3cc(-c4ccc(C(=O)N5CC(N6CCOC[C@@H]6C)C5)cc4)no3)c2cc1F | c-Kit(V654A) (Homo sapiens, UniProt P10721, V654A) | 1.3 |

* * *

- Measured on: c-Kit(V654A) (Homo sapiens, UniProt P10721, V654A)
- Protocol: c-Kit(V654A) assay
- Format: biochemical
- Test context: Table 1; 200 μM ATP
- Description: c-Kit(V654A) (N-terminal GST-tagged, recombinant human c-Kit, amino acids 544-end containing the V654A mutation) is incubated with 8 mM MOPS pH 7.0, 0.2 mM EDTA, 250 μM GGMEDIYEFMGGKKK, 10 mM MgAcetate and [gamma-33P-ATP](specific activity approx. 500 cpm/pmol, concentration 200 μM). The reaction is initiated by the addition of the MgATP mix. After incubation for 40 minutes at room temperature, the reaction is stopped by the addition of 3% phosphoric acid solution. […]
pIC50: −log10 of the molar value.
Recorded pIC50 values for a group of molecules are listed next.

| Molecule | pIC50 |
| --- | --- |
| COCCOc1cc2[nH]nc(-c3cc(-c4ccc(N5CC[C@@H]6[C@@H]5CCN6C)cc4)no3)c2cc1F (relative stereo) | 8.77 |
| COCCOc1cc2[nH]nc(-c3cc(-c4ccc(N5CC(N6CCOCC6)C5)nc4)no3)c2cc1F | 8.32 |
| COCCOc1cc2[nH]nc(-c3cc(-c4ncc(C(=O)N5CC(N6CCOCC6)C5)s4)no3)c2cc1F | 7.12 |
| COCCOc1cc2[nH]nc(-c3cc(-c4ccc(N5CCCNCC5)cc4)no3)c2cc1F | 9.14 |
| COCCOc1cc2[nH]nc(-c3cc(-c4ccc(C(=O)N5C[C@H]6COC[C@H]6C5)c(F)c4)no3)c2cc1F | 8.37 |
| COCCOc1cc2[nH]nc(-c3cc(-c4ccc(C(=O)N(C)C)cc4)no3)c2cc1F | 8.77 |
| COCCOc1cc2[nH]nc(-c3cc(-c4ccc(C(=O)NC5CN(C)C5)cc4)no3)c2cc1F | 8.40 |
| COCCOc1cc2[nH]nc(-c3cc(-c4ccc(C(=O)N5CC6(CCOC6)C5)cc4)no3)c2cc1F | 9.00 |
| CC(C)(O)C1CCCN1C(=O)c1ccc(-c2cc(-c3n[nH]c4cc(C(F)(F)F)ccc34)on2)cc1 (centres unmarked) | 7.82 |
| COCCOc1cc2[nH]nc(-c3cc(-c4ccc(C(=O)N5CCN(C)CC5)cc4)no3)c2cc1Cl | 9.40 |
| COCCOc1cc2[nH]nc(-c3cc(-c4ccc(C(=O)N5C[C@H]6CNC[C@H]6C5)cc4)no3)c2cc1F | 8.96 |
| COCCOc1cc2[nH]nc(-c3cc(-c4ccc(C(=O)N5CC(N6CCC(O)CC6)C5)cc4)no3)c2cc1F | 9.02 |
| COCCOc1cc2[nH]nc(-c3cc(-c4ccc(C(=O)N5CCC[C@H]5CO)nc4)no3)c2cc1F | 8.24 |
| COC(=O)c1ccc2c(-c3cc(-c4ccc(C(=O)N(C)C)cc4)no3)n[nH]c2c1 | 8.09 |
| COCCOc1cc2[nH]nc(-c3cc(-c4ccc(C(=O)N5CCS(=O)(=O)CC5C)cc4)no3)c2cc1F (centres unmarked) | 9.22 |
| COCCOc1cc2[nH]nc(-c3cc(-c4ccc(C(=O)N5CC[C@@H]5C(C)(C)O)cc4)on3)c2cc1F | 8.66 |
| COCCOc1cc2[nH]nc(-c3cc(-c4ccc(C(=O)N5CC(C#N)C5)cc4)no3)c2cc1F | 8.70 |
| COCCOc1cc2[nH]nc(-c3cc(-c4ccc(C(=O)N5CCN(C)CC5CO)cc4)no3)c2cc1F (centres unmarked) | 9.14 |
| COCCOc1cc2[nH]nc(-c3cc(-c4ccc(S(=O)(=O)N5CCOCC5)cc4)no3)c2cc1F | 8.52 |
| COCCOc1cc2[nH]nc(-c3cc(-c4ccc(C(=O)N5CC6CC(C5)O6)cc4)no3)c2cc1F | 9.35 |
| COCCOc1cc2[nH]nc(-c3cc(-c4ccc(C(=O)N5CC(n6cccn6)C5)cc4)no3)c2cc1F | 8.85 |
| COCCOc1cc2[nH]nc(-c3cc(-c4ccc(C(=O)N5CC(C)(N(C)C)C5)cc4)no3)c2cc1F | 9.00 |
| COCCOc1cc2[nH]nc(-c3cc(-c4ccc(C(=O)N5CCN(C)C[C@@H]5C)cc4)on3)c2cc1C#N | 8.62 |
| COCCOc1cc2[nH]nc(-c3cc(-c4nc(C(=O)N5CC(N6CCOCC6)C5)cs4)no3)c2cc1F | 7.46 |
| COCCOc1cc2[nH]nc(-c3cc(-c4ccc(S(=O)(=O)N(C)C)cc4)no3)c2cc1F | 8.49 |
| COCCOc1cc2[nH]nc(-c3cc(-c4cncs4)no3)c2cc1F | 7.89 |
| COCCOc1cc2[nH]nc(-c3cc(-c4ccc(C(=O)N5CC(c6cccnc6)C5)cc4)no3)c2cc1F | 9.35 |
| CNC(=O)c1ccc2c(-c3cc(-c4ccc(C(=O)N(C)C)cc4)no3)n[nH]c2c1 | 7.06 |
| COCCOc1cc2[nH]nc(-c3cc(-c4ccc(C(=O)N5CC(n6ccnc6)C5)cc4)no3)c2cc1F | 9.20 |
| COCCOc1cc2[nH]nc(-c3cc(-c4ccc(C(=O)N5C6COCC5C6)cc4)no3)c2cc1F | 9.03 |
| COCCOc1cc2[nH]nc(-c3cc(-c4ccc(C(=O)N5CC(N6CCOCC6)C5)c(F)c4)no3)c2cc1F | 8.48 |
| COc1cc2[nH]nc(-c3cc(-c4ccc(C(=O)N5CCC[C@H]5CS(C)(=O)=O)cc4)no3)c2cc1F | 8.44 |

* * *

- Measured on: mutant cKIT (560-576 and V654A) in GIST430/654 cell line (Homo sapiens (Human), UniProt P10721, DEL560-576/V654A)
- Sequence (P10721 other isoform, or with tags, fused parts or gaps V654A/del 1-25/del 560-576 limits assumed): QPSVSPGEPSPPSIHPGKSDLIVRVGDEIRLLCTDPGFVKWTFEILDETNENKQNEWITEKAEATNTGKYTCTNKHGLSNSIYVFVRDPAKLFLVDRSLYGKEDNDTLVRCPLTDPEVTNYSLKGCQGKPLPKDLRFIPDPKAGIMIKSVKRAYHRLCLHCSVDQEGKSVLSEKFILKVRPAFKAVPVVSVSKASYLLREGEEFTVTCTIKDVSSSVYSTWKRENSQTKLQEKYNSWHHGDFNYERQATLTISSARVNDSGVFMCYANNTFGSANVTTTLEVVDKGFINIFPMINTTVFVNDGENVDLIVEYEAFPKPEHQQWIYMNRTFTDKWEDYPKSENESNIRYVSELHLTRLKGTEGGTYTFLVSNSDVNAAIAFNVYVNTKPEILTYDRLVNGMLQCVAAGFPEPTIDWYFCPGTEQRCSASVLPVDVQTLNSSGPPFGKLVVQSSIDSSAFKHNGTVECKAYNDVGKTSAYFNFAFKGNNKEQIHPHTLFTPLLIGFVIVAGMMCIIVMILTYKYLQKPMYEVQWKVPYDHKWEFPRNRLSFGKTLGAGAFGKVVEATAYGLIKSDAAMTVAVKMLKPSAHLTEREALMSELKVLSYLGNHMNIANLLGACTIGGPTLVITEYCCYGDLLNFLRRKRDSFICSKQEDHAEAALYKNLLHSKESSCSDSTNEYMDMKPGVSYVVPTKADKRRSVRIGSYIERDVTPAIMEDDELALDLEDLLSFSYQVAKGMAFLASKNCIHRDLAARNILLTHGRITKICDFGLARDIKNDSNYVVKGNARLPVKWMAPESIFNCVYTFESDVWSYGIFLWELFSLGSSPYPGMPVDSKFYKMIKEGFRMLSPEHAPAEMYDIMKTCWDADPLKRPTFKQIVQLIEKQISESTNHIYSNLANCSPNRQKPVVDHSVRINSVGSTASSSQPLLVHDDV
- Protocol: Cellular testing of cKIT mutant inhibitors: phospho-Y307-cKIT Luminex assay in GIST430/654 cells
- Assay type: cell-based
- Test context: Table 1; cKIT autophosphorylation, compounds 45 min; read-out: GIST 430/654 IC50
Known IC50 of a selection of compounds
Measurement label: IC50 (µM)

| Compound | Measurement label | Recorded result |
| --- | --- | --- |
| COc1cc2[nH]nc(-c3cc(-c4ccc(C(=O)N5CCNCC5)cc4)no3)c2cc1F [A225] | IC50 | 0.34 |
| COCCOc1cc2[nH]nc(-c3cc(-c4ccc(C(=O)N5CC(N6CCCC6)C5)cc4)no3)c2cc1F [A178] | IC50 | 0.062 |
| COCCOc1cc2[nH]nc(-c3cc(-c4ccc(N5CCS(=O)(=O)CC5)nc4)no3)c2cc1F [A131] | IC50 | 0.065 |
| COCCOc1cc2[nH]nc(-c3cc(-c4ccc(C(=O)N5CC(N(C)C)C5)cc4)no3)c2cc1F [A76] | IC50 | 0.079 |

Measured values drawn from patent US20260042753A1 for this set.
